# assayProcedure: Tmax in Sprague-Dawley rat at 31 mg/kg, po using PEG400/Solutol HS-15/water formulation
# Format: ADME, organism-based
# conditionSummary: in vivo
readoutName: Tmax (h)

| molSmiles | readoutName | valueUnit | recordedMeasurement |
| --- | --- | --- | --- |
| O=C(NNS(=O)(=O)c1ccccc1F)c1cc(F)cc(-c2ccccn2)c1 | Tmax | h | 1 |

* * *

# assayProcedure: Cmax in Sprague-Dawley rat at 31 mg/kg, po using PEG400/Solutol HS-15/water formulation
# Type: ADME, organism-based
# Parameters: dose 31 mg/kg, route oral
# conditionSummary: in vivo
readoutName: Cmax (µM)

| molecule | readoutName | recordedMeasurement |
| --- | --- | --- |
| O=C(NNS(=O)(=O)c1ccccc1F)c1cc(F)cc(-c2ccccn2)c1 [WM-1119] | Cmax | 14 |

* * *

# assayProcedure: Kinetic solubility of the compound in 0.01 M HCl at pH 2 by nephelometry
# Assay type: physicochemical
# conditionSummary: read-out: Kinetic_solubility
Form field: solubility kinetic (one value per entry).

| molSmiles | solubility kinetic |
| --- | --- |
| Cc1cc(C(=O)NNS(=O)(=O)c2ccccc2F)cc(-n2cccn2)c1 | 0.0125 to 0.025 mg/mL |
| Cc1cc(-n2cccn2)cc(C(=O)NNS(=O)(=O)c2ccccc2)c1F | 0.0063 to 0.0125 mg/mL |
| Cc1cc(C(=O)NNS(=O)(=O)c2ccccc2F)cc(-c2ccco2)c1 | 0.0063 to 0.0125 mg/mL |
| CC(C)Oc1cccc(C(=O)NNS(=O)(=O)c2ccccc2F)c1 | 0.05 to 0.1 mg/mL |
| C=CCOc1ccc(F)c(C(=O)NNS(=O)(=O)c2ccccc2)c1 | 0.05 to 0.1 mg/mL |
| O=C(NNS(=O)(=O)c1ccccc1F)c1cccc(-n2cccn2)c1 | 0.05 to 0.1 mg/mL |

* * *

# assayProcedure: AUC (0 to infinity) in Sprague-Dawley rat at […], iv
# Assay type: ADME, organism-based
# Design: dose 2.9 mg/kg, time infinity, route intravenous
# conditionSummary: in vivo

| molSmiles | AUC(0-inf) |
| --- | --- |
| O=C(NNS(=O)(=O)c1ccccc1F)c1cc(F)cc(-c2ccccn2)c1 | 6.2 µM·h |

* * *

# assayProcedure: Kinetic solubility of the compound in 0.01 M HCl at pH 2 by nephelometry
# Format: physicochemical
# conditionSummary: read-out: Kinetic_solubility

| compound | solubility kinetic |
| --- | --- |
| Cc1cc(C(=O)NNS(=O)(=O)c2ccccc2F)cc(-c2ccccn2)c1 | > 100 µg/mL |
| CCOc1cc(C)c(F)c(C(=O)NNS(=O)(=O)c2ccccc2)c1 | 12.5 to 25 µg/mL |
| Cc1cc(-c2ccccn2)cc(C(=O)NNS(=O)(=O)c2ccccc2)c1F | 50 to 100 µg/mL |
| O=C(NNS(=O)(=O)c1ccccc1F)c1cc(F)cc(-c2ccccn2)c1 [WM-1119] | 25 to 50 µg/mL |
| Cc1cc(OC(C)C)cc(C(=O)NNS(=O)(=O)c2ccccc2F)c1 | 12.5 to 25 µg/mL |
| O=C(NNS(=O)(=O)c1ccccc1F)c1cc(F)cc(-n2cccn2)c1 | 25 to 50 µg/mL |
| Cc1cc(-c2ncccn2)cc(C(=O)NNS(=O)(=O)c2ccccc2)c1F | 50 to 100 µg/mL |
| Cc1cc(-n2nccn2)cc(C(=O)NNS(=O)(=O)c2ccccc2)c1F | 25 to 50 µg/mL |
| O=C(NNS(=O)(=O)c1ccccc1F)c1cccc(-c2ccccn2)c1 | 50 to 100 µg/mL |
| CCOc1cc(C)cc(C(=O)NNS(=O)(=O)c2ccccc2F)c1 | 12.5 to 25 µg/mL |

* * *

# assayProcedure: AUC (0 to infinity) in Sprague-Dawley rat at 33 mg/kg, po administered as suspension using HPMC formulation
# Type: ADME, organism-based
# Parameters: dose 33 mg/kg, route oral, time infinity
# conditionSummary: in vivo

| molecule | AUC(0-inf) [µM·h] |
| --- | --- |
| O=C(NNS(=O)(=O)c1ccccc1F)c1cc(F)cc(-c2ccccn2)c1 [WM-1119] | 13 |

* * *

# assayProcedure: Apparent permeability across apical to basolateral side in human Caco2 cells measured over 90 mins by LC-MS/MS analysis
# Format: ADME, cell-based
# conditionSummary: Caco-2
Category key, based on recorded Papp A→B at […]: low class = under 50 ×10⁻⁶ cm/s, middle class = from 50 ×10⁻⁶ cm/s up to 60 ×10⁻⁶ cm/s, high class = 60 ×10⁻⁶ cm/s and over

| molSmiles | categoryLabel |
| --- | --- |
| CCOc1cc(C)cc(C(=O)NNS(=O)(=O)c2ccccc2F)c1 | low class |
| Cc1cc(-c2ncccn2)cc(C(=O)NNS(=O)(=O)c2ccccc2)c1F | high class |
| Cc1cc(-n2cccn2)cc(C(=O)NNS(=O)(=O)c2ccccc2)c1F | low class |
| O=C(NNS(=O)(=O)c1ccccc1F)c1cccc(-c2ccco2)c1 | middle class |
| CCOc1cc(C)c(F)c(C(=O)NNS(=O)(=O)c2ccccc2)c1 | high class |
| Cc1cc(-n2nccn2)cc(C(=O)NNS(=O)(=O)c2ccccc2)c1F | middle class |
| CCCOc1cccc(C(=O)NNS(=O)(=O)c2ccccc2F)c1 | high class |
| Cc1cc(-c2ccccn2)cc(C(=O)NNS(=O)(=O)c2ccccc2)c1F | high class |
| O=C(NNS(=O)(=O)c1ccccc1F)c1cc(Cl)cc(-c2cccs2)c1 | low class |
